measurement_target: DNA excision repair protein ERCC-5 (Homo sapiens, UniProt P28715)
Sequence (P28715 whole entry): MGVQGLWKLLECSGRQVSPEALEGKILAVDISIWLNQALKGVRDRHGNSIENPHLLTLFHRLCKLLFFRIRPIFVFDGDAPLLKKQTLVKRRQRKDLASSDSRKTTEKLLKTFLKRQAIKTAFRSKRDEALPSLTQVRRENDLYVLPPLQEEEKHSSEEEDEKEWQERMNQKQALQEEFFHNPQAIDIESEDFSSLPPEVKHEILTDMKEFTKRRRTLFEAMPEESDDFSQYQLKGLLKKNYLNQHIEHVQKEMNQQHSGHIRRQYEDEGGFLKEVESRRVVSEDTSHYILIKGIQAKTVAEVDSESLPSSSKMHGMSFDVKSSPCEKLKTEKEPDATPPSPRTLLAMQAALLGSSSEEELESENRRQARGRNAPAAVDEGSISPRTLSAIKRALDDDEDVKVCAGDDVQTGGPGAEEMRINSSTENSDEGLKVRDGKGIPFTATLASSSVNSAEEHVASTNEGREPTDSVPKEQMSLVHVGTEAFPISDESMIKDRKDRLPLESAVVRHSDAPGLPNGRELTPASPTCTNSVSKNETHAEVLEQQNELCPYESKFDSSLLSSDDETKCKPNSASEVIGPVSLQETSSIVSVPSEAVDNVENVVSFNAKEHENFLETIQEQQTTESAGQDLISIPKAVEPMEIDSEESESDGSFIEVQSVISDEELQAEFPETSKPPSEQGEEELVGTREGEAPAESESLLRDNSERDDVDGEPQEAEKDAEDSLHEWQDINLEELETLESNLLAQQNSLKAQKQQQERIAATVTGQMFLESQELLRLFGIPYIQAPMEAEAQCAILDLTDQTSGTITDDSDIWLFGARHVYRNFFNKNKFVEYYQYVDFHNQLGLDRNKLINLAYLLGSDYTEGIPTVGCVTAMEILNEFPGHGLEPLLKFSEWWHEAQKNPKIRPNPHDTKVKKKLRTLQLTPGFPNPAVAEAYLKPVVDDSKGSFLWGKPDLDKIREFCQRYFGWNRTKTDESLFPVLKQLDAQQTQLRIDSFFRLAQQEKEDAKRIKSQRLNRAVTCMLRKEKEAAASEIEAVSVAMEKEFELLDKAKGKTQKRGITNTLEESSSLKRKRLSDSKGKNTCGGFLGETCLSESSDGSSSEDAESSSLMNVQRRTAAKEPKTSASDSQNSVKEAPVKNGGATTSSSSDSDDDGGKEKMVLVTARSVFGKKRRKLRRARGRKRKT
protocol_details: Concentration required for 50% inhibition of Xeroderma pigmentosum G
experimental_readout: IC50 (µM)
The answer is to be given in µM; state only the numeric part.

// solved cases for IC50 follow
| test_smiles | measurement_target | IC50 (µM) |
| --- | --- | --- |
| O=C(O)C(=O)CC(=O)c1ccccc1F | DNA excision repair protein ERCC-5 (Homo sapiens, UniProt P28715) | 78.5 |
| O=C(O)C(=O)CC(=O)c1cccc(Oc2ccccc2)c1 | DNA excision repair protein ERCC-5 (Homo sapiens, UniProt P28715) | 5.44 |
| O=C(O)C(=O)CC(=O)c1ccc(Cl)cc1 | DNA excision repair protein ERCC-5 (Homo sapiens, UniProt P28715) | 12.7 |
| CC(C)(C)c1ccc(-c2ccc(C(=O)CC(=O)C(=O)O)o2)cc1 | DNA excision repair protein ERCC-5 (Homo sapiens, UniProt P28715) | 3.13 |

# input for lookup
Give the measured IC50 of O=C(O)C(=O)CC(=O)c1ccc(-c2ccc(Cl)cc2)cc1Cl . 1.77

----------
# Lookup of reported pIC50 keyed by entry
measurement_target: Flap endonuclease 1 (Homo sapiens)
Recall that pIC50 is obtained by taking minus log10 of the concentration measured in molar.

| test_smiles | pIC50 |
| --- | --- |
| O=C(O)C(=O)CC(=O)c1c(Cl)cccc1Cl | 4.42 |

Give the measured pIC50 of O=C(O)C(=O)Cc1ncc(-c2ccccc2)s1 . 4.33

Entry to check: COc1ccc(-c2ccc(Cl)c(C(=O)CC(=O)C(=O)O)c2)cc1 6.72

----------
# Lookup of reported pIC50 keyed by entry
measurement_target: DNA excision repair protein ERCC-5 (Homo sapiens, UniProt P28715)
protocol_details: Concentration required for 50% inhibition of Xeroderma pigmentosum G
Recall that pIC50 is obtained by taking minus log10 of the concentration measured in molar.

| test_smiles | experimental_readout | reading |
| --- | --- | --- |
| COc1ccc(-c2cccc(C(=O)CC(=O)C(=O)O)c2)cc1 | pIC50 | 5.80 |
| O=C(CC(=O)c1nnn[nH]1)c1ccc(Oc2ccccc2)cc1 | pIC50 | 4.01 |
| O=C(O)C(=O)CC(=O)c1ccccc1Cl | pIC50 | 4.42 |
| O=C(O)C(=O)CC(=O)c1cccc(-c2ccccc2)c1 | pIC50 | 5.49 |

Give the measured pIC50 of O=C(O)C(=O)CC(=O)c1cc(Cl)ccc1Cl . 5.15

----------
measurement_target: Flap endonuclease 1 (Homo sapiens, UniProt P39748)
Sequence (P39748 whole entry): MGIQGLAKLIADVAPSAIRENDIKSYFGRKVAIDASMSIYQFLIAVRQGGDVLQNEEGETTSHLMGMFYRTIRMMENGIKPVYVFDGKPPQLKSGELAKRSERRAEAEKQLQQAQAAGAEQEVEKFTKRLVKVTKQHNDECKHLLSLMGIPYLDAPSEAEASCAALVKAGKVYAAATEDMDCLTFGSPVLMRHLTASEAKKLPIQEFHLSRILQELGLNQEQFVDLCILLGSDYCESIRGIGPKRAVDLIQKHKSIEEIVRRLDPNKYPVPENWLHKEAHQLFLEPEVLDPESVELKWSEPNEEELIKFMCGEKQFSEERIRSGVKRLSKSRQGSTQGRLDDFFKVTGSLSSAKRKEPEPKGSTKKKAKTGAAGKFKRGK
Output schema: class label derived from IC50. Mapping: bucket 1 (below 6 µM), bucket 2 (6 µM to below 20 µM), bucket 3 (20 µM or more)

The following compounds have reported results that may help.
| test_smiles | measurement_target | answer_label |
| --- | --- | --- |
| C=C(CC(=O)c1ccc(Oc2ccccc2)cc1)C(=O)O | Flap endonuclease 1 (Homo sapiens, UniProt P39748) | bucket 3 |
| O=C(O)C(=O)CC(=O)c1ccc(-c2ccc(Cl)cc2)o1 | Flap endonuclease 1 (Homo sapiens, UniProt P39748) | bucket 2 |
| O=C(O)C(=O)CC(=O)c1ccc(Cl)cc1Cl | Flap endonuclease 1 (Homo sapiens, UniProt P39748) | bucket 1 |
| O=C(O)C(=O)CC(=O)c1ccc(-c2ccc(Cl)cc2)cc1Cl | Flap endonuclease 1 (Homo sapiens, UniProt P39748) | bucket 1 |
| O=C(O)C(=O)CC(=O)c1ccc(-c2ccccc2Cl)o1 | Flap endonuclease 1 (Homo sapiens, UniProt P39748) | bucket 2 |
| O=C(O)C(=O)CC(=O)c1cc(Cl)ccc1Cl | Flap endonuclease 1 (Homo sapiens, UniProt P39748) | bucket 1 |

Which IC50 category applies to O=C(O)C(=O)CC(=O)c1cccc(Cl)c1Cl here? bucket 2

Entry to check: CC(C)(C)c1ccc(-c2ccc(C(=O)CC(=O)C(=O)O)o2)cc1 bucket 2

Entry to check: O=C(O)C(=O)CC(=O)c1ccc(Oc2ccccc2)cc1 bucket 1

Entry to check: O=C(CC(=O)c1nnn[nH]1)c1ccc(Oc2ccccc2)cc1 bucket 3

Entry to check: O=C(O)C(=O)CC(=O)c1ccccc1 bucket 3

Entry to check: O=C(O)C(=O)CC(=O)c1ccc(-c2ccccc2)cc1 bucket 1

Entry to check: O=C(O)C(=O)CC(=O)c1ccccc1F bucket 2

Entry to check: O=C(O)C(=O)CC(=O)c1ccc(Cl)cc1 bucket 2

Entry to check: O=C(c1ccc(Oc2ccccc2)cc1)c1ncc2cccnc2c1O bucket 3
